Biological target: AGTR1 (Homo sapiens, UniProt P30556)
Construct: host or cells: Pathunter CHO-K1 AGTR1 β-arrestin cell line (CHO-K1)
Sequence (P30556 1-359): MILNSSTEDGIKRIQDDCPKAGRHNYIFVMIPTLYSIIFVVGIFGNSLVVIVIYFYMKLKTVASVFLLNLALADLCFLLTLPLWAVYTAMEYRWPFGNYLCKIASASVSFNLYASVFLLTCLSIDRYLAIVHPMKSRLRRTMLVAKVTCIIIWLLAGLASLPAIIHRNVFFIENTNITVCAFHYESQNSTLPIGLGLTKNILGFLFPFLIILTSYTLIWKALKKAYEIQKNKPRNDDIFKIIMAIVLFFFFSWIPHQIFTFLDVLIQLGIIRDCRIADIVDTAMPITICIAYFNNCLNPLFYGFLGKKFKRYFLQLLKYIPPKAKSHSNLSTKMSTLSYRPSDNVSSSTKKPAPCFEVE
Assay: DiscoveRx β-arrestin2 recruitment assay (enzyme complementation, Pathunter CHO-K1 AGTR1 β-arrestin cell line)
Format: cell-based
Conditions: DiscoveRx β-arrestin2 recruitment
property measured: pEC50
Please treat pEC50 as minus the base-10 logarithm of the molar concentration.

> print(dat)
                               input.smiles  property.measured  reported.value
1  CCCCc1ncc(C(=O)Nc2ccncc2C)n1Cc1ccc(-c2cc(-c3ccccc3)ccc2-c2nn[nH]n2)cc1              pEC50            7.05
2  CCOc1nc2cccc(C(=O)O)c2n1Cc1ccc(-c2cc(-c3ccccc3)ccc2-c2noc(=O)[nH]2)cc1              pEC50            8.41
3  CCc1nc2c(C)cc(C)nc2n1Cc1ccc(-c2cc(-c3cccc(C)c3)ccc2C(=O)O)nn1              pEC50            6.15

Problem: In one line, give reported pEC50 of the entry CCCc1nc(CC)c(C(=O)O)n1Cc1ccc(-c2cc(-c3ccccc3)ccc2C(=O)O)cc1 .
Result: 6.82

Problem: In one line, give reported pEC50 of the entry CCCc1nc(CC)c(C(N)=O)n1Cc1ccc(-c2cc(-c3ccccc3)ccc2-c2nn[nH]n2)cc1 .
Result: 7.90

Problem: In one line, give reported pEC50 of the entry CCc1nc2c(C)cc(C)nc2n1Cc1ccc(-c2cc(-n3ccc(C(F)(F)F)n3)ccc2-c2nnn[nH]2)cc1 .
Result: 7.45

Problem: In one line, give reported pEC50 of the entry CCCCc1ncc(C(=O)NC(C)(C)COC)n1Cc1ccc(-c2cc(-c3ccccc3)ccc2-c2nn[nH]n2)cc1 .
Result: 7.01

Where do these numbers come from? They come from patent US12037324B2.
